B1: LINE1-full (parent)
chain: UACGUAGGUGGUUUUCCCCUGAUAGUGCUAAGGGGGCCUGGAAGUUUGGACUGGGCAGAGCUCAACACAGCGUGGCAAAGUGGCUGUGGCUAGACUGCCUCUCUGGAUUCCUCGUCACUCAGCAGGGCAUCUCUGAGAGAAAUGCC

# Variants of: B1
# ASSAY COMMENT: self-cleavage, relative activity (ratio to wild type); higher = more cleavage; in vitro, sequencing; the parent is a self-cleaving ribozyme
Measured self-cleavage values are reported for all entries that follow.
The answer should be written as a number, with no unit following it.

[[record]]
alteration = "U13A A78U"
recorded_metric = "self-cleavage"
quantitative_result = 1.52


-- ask Look up self-cleavage: U39A C128G
-- reply 1.62
